Target: D(4) dopamine receptor (Homo sapiens)
Sequence (P21917 whole entry): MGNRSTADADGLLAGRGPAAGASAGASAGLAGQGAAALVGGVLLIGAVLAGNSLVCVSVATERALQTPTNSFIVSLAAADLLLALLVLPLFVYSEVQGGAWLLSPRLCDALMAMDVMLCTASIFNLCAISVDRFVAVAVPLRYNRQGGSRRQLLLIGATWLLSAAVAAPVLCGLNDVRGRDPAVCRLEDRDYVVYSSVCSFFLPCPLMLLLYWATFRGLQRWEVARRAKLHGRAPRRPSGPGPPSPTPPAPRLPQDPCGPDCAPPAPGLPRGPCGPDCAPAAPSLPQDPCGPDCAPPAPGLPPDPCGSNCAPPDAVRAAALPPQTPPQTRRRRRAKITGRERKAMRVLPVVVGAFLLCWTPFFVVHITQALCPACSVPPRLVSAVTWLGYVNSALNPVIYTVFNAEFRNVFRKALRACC
Test: Activity at human D4.2 receptor assessed as [3H]thymidine incorporation in CHO 10001 cells by mitogenesis assay
Assay type: functional, cell-based
Reported pEC50 by item:
Schema: pEC50 number; meaning minus log10 of the concentration expressed in molar units.

- Smiles Entry: "Clc1ccc(N2CCN(Cc3cn4ccccc4n3)CC2)cc1"
  Observed Measurement: 8.74

Proceeding to the next molecule to report its pEC50.
Ask: Annotate the molecule COc1ccccc1N1CCN(Cc2cn3cc(I)ccc3n2)CC1 with its measured pEC50.
Result: 9.28

* * *

Target: D(1A) dopamine receptor (Sus scrofa)
Sequence (P50130 whole entry): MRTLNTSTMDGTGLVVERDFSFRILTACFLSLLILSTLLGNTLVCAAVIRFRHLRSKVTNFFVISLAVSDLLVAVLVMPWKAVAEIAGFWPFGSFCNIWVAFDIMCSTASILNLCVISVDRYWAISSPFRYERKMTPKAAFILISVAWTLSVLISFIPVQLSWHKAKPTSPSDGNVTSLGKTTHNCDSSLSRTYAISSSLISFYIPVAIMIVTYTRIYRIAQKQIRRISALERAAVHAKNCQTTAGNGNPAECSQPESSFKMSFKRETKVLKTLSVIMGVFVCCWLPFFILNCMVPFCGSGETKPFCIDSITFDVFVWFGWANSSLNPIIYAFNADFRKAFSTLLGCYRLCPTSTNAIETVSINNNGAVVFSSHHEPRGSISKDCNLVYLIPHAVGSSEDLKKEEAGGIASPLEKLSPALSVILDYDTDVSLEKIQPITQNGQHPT
Assay: Displacement of [3H][…] from dopamine receptor D1 in porcine striatal membrane
Quantity Kind: pKi
Schema: pKi number; meaning minus log10 of the concentration expressed in molar units.

- Smiles Entry: "Clc1ccc(N2CCN(Cc3cn4ccccc4n3)CC2)cc1"
  Study System: "D(1A) dopamine receptor (Sus scrofa)"
  pKi: 5.17
- Smiles Entry: "CN1CCN(c2ccc3nc(CN4CCN(c5ccc(Cl)c(Cl)c5)CC4)cn3n2)CC1"
  Study System: "D(1A) dopamine receptor (Sus scrofa)"
  pKi: 4.89
- Smiles Entry: "COc1ccccc1N1CCN(Cc2cn3cc(I)ccc3n2)CC1"
  Study System: "D(1A) dopamine receptor (Sus scrofa)"
  pKi: 5.19
- Smiles Entry: "COc1ccccc1N1CCN(Cc2cn3cc(C)cc(-c4ccccc4)c3n2)CC1"
  Study System: "D(1A) dopamine receptor (Sus scrofa)"
  pKi: 5.54
- Smiles Entry: "COc1ccccc1N1CCN(Cc2cn3nc(Cl)ccc3n2)CC1"
  Study System: "D(1A) dopamine receptor (Sus scrofa)"
  pKi: 5.11
- Smiles Entry: "Clc1ccc(N2CCN(Cc3cn4nc(Cl)ccc4n3)CC2)cc1"
  Study System: "D(1A) dopamine receptor (Sus scrofa)"
  pKi: 5.26

Ask: Give pKi only, for Fc1ccc(N2CCN(Cc3cn4nc(Cl)ccc4n3)CC2)cc1 , using D(1A) dopamine receptor (Sus scrofa) data.
Result: 5.15

Ask: Give pKi only, for Fc1ccc(N2CCN(Cc3cn4cccnc4n3)CC2)cc1 , using D(1A) dopamine receptor (Sus scrofa) data.
Result: 4.33

Ask: Give pKi only, for COc1ccccc1N1CCN(Cc2cn3cc(C)cc(C#N)c3n2)CC1 , using D(1A) dopamine receptor (Sus scrofa) data.
Result: 4.40

Ask: Give pKi only, for Clc1ccc2nc(CN3CCN(c4ccc(Cl)c(Cl)c4)CC3)cn2n1 , using D(1A) dopamine receptor (Sus scrofa) data.
Result: 5.82
